test_target: human ENPP1 (Homo sapiens)
Construct: made in house
Sequence (P22413 whole entry): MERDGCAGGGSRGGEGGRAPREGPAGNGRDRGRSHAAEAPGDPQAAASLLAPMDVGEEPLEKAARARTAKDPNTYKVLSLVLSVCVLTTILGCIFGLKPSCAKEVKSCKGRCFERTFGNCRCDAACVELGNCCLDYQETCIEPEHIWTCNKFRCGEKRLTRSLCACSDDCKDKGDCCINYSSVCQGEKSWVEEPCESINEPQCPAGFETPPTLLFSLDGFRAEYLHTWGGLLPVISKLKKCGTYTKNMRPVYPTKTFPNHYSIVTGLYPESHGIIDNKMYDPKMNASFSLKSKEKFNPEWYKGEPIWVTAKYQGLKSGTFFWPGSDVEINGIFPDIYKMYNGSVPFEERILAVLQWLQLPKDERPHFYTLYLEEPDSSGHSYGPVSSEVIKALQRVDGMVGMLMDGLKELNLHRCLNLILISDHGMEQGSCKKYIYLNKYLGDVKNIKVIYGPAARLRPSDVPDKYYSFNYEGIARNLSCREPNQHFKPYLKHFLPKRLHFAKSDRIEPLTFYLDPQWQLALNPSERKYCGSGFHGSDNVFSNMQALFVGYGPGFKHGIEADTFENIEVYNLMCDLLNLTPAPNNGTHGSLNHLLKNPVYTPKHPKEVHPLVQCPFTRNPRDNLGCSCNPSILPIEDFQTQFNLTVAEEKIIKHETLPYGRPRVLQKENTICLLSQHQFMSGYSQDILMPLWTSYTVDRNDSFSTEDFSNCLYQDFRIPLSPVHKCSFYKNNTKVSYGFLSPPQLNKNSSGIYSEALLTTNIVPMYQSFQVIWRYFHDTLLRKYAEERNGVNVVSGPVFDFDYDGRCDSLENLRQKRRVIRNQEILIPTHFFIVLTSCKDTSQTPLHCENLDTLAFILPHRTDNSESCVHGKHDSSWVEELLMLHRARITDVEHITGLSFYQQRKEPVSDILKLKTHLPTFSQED
assay_details: ENPP1 assay with ATP substrate (Transcreener AMP2/GMP2 TR-FRET)
Assay type: biochemical
experimental_setup: 1 hour at room temperature

| entry_smiles | IC50 |
| --- | --- |
| Cc1csc2c(N3CCN(CCCCc4ccncc4)CC3)ncnc12 | 1 to 20 µM |
| NS(=O)(=O)c1ccc(CNc2ncnc3scc(Br)c23)cc1 | 0.1 to 1 µM |
| NS(=O)(=O)N1CCC(CNc2nc(-c3ccccn3)nc3scc(-c4ccccc4)c23)CC1 | 0.1 to 1 µM |
| Cn1nc(-c2ccccc2)c2c(NCc3ccc(S(N)(=O)=O)cc3)ncnc21 | < 0.1 µM |
| NS(=O)(=O)c1ccc(CNc2nc(NC3CC3)nc3scc(-c4ccccc4)c23)cc1 | < 0.1 µM |
| Cn1ncc2c(NCc3ccc(S(N)(=O)=O)s3)nc(Cl)nc21 | 0.1 to 1 µM |
| CCOc1nc(NCc2ccc(S(N)(=O)=O)cc2)c2c(Br)nn(C)c2n1 | < 0.1 µM |
| COc1cc(S(N)(=O)=O)ccc1CNc1nc(-c2ccccn2)nc2scc(-c3ccccc3)c12 | < 0.1 µM |
| CCN(CC)c1cc(NCc2ccc(S(N)(=O)=O)cc2)c2cnn(C)c2n1 | > 20 µM |

###

test_target: ENPP3 (Homo sapiens)
Sequence (O14638 whole entry, species assumed): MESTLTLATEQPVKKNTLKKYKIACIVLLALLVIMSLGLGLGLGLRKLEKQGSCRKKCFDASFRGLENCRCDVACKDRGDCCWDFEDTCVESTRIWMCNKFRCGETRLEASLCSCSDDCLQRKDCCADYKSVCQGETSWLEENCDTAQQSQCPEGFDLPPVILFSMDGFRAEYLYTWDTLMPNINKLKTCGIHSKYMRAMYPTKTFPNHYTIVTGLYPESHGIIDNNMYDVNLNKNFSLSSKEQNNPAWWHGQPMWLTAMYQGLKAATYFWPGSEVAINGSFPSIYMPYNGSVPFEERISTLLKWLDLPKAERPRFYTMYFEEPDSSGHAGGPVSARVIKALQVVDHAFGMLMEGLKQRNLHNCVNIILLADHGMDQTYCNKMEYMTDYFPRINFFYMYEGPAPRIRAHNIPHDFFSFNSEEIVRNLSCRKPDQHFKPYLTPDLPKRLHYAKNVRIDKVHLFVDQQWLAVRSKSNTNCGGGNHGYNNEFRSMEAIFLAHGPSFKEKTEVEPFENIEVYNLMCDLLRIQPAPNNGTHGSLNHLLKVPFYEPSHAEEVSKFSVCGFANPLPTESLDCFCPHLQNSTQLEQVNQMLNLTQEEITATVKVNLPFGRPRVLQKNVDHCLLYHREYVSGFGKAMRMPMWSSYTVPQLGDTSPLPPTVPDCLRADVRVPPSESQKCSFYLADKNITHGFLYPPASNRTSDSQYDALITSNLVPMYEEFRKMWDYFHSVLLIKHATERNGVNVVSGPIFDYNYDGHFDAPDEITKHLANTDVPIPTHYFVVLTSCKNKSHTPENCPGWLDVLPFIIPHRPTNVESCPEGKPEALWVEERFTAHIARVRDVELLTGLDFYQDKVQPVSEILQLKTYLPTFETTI
assay_details: ENPP3 Km ATP assay
Format: biochemical
experimental_setup: ATP at Km
Attribute: IC50
property: IC50

| entry_smiles | experimental_result |
| --- | --- |
| Cn1ncc2c(NCc3ccc(S(N)(=O)=O)cc3)nc(N)nc21 | 0.1 to 1 µM |
| Cc1nsc2c(=O)n(Cc3ccc(S(N)(=O)=O)cc3)cnc12 | 1 to 20 µM |
| NS(=O)(=O)c1ccc(CNc2nc(-c3ccccn3)nc3scc(-c4ccncc4)c23)cc1 | > 20 µM |
